Values from PubChem BioAssay AID1963981

system: 354836-022-R-J1-PDC multicell spheroid viability; assay: Anticancer human tumor 354836-022-R-J1-PDC patient-derived head and neck squamous cell carcinoma cell line growth inhibition [PI3K]; details: second compound 0.316 µM; first compound 0.316 µM; active = viability on the fitted dose curve at most 10% of control; inactive = the rest;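 also: spheroids exposed to agents for seven days before the viability read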
Write down the outcome that applies. Available outcomes: yes (active), no (inactive)

Answered cases to consult:
COMPOUND	CAT
CNC(=O)c1ccc(N2C(=S)N(c3ccc(C#N)c(C(F)(F)F)c3)C(=O)C2(C)C)cc1F + COc1c(OCCCN2CCOCC2)ccc2c3n(c(=NC(=O)c4cnc(N)nc4)nc12)CCN3	no
Cn1ncc(Cl)c1-c1cc(C(=O)NC(CN)Cc2cccc(F)c2)sc1Cl (centres undefined) + Cc1nc(NC(=O)N2CCCC2C(N)=O)sc1-c1ccnc(C(C)(C)C(F)(F)F)c1	no
C#Cc1c(F)ccc2cc(O)cc(-c3ncc4c(N5CC6CCC(C5)N6)nc(OCC56CCCN5CC(F)C6)nc4c3F)c12 (centres undefined) + CC(Nc1ccc2c(c1)OCCn1cc(N3C(=O)OCC3C(F)F)nc1-2)C(N)=O	no

q: Please indicate how the test categorized C=CC(=O)N1CCN(c2nc(=O)n(-c3c(C)ccnc3C(C)C)c3nc(-c4c(O)cccc4F)c(F)cc23)C(C)C1 (centres undefined) + CC(Nc1ncnc2nc[nH]c12)c1cc2cccc(Cl)c2c(=O)n1-c1ccccc1 .
a: no

q: // repeat for CC1(C)CCC(CN2CCN(c3ccc(C(=O)NS(=O)(=O)c4ccc(NCC5CCOCC5)c([N+](=O)[O-])c4)c(Oc4cnc5[nH]ccc5c4)c3)CC2)=C(c2ccc(Cl)cc2)C1 + CC(Nc1ccc2c(c1)OCCn1cc(N3C(=O)OCC3C(F)F)nc1-2)C(N)=O and report
a: no

q: And then Cn1nccc1Nc1nccc(-c2ccn(C(CO)c3ccc(Cl)c(F)c3)c(=O)c2)n1 (centres undefined) + CC(Nc1ccc2c(c1)OCCn1cc(N3C(=O)OCC3C(F)F)nc1-2)C(N)=O , what is it?
a: no

q: // same read-out, input: Cn1ncc(Cl)c1-c1cc(C(=O)NC(CN)Cc2cccc(F)c2)sc1Cl (centres undefined) + CC(Nc1ncnc2nc[nH]c12)c1cc2cccc(Cl)c2c(=O)n1-c1ccccc1
a: no
